- Measurement Notes: Binding affinity to human sigma 1 receptor
Measurement Type: pKi
Give bare numbers, as −log10 of the molar value.

input: Entry under review: `O=C(NC1CCN(Cc2ccccc2)CC1)c1ccc(I)cc1` . Reported pKi?
output: 8.77

---

- Measurement Notes: Anti-proliferative against human U-87 MG cells assessed as reduction in cell viability incubated for 72 hrs by MTT assay
- Type: functional, cell-based, U-87MG ATCC
Measurement Type: IC50
Quick note: unit goes after the number.

Worked cases, IC50 given:
- Smiles Text: "COc1ccc(/C(C)=C/CN2CCN(Cc3ccc(C(F)(F)F)cc3)CC2)cc1"
  IC50: "20.6 µM"
- Smiles Text: "C/C(=C\\CN1CCN(Cc2ccc(C(F)(F)F)cc2)CC1)c1ccccc1"
  IC50: "19 µM"

# input for lookup
input: Fill in the blank: the reported IC50 of `C/C(=C\CN1CCN(C(=O)C2CCCC2)CC1)c1ccccc1` is ____.
output: 11.2 µM

---

- Test Target: Sigma non-opioid intracellular receptor 1 (Homo sapiens, UniProt Q99720)
- Sequence (Q99720 whole entry): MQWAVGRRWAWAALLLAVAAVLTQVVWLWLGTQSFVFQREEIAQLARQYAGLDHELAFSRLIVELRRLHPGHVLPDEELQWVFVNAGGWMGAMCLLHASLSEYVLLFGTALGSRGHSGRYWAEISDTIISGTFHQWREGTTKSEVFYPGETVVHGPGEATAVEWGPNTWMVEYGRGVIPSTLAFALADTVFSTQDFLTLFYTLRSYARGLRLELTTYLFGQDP
- Measurement Notes: Displacement of [H3]DTG from sigma 1 receptor (unknown origin) by competition binding assay
Measurement Type: Ki (nM)
One number for each entry, in nM.

- Smiles Text: "CCN(C/C=C\\c1ccc(C2CCCCC2)c(Cl)c1)C1CCCCC1"
  Measurement Type: "Ki"
  Measured Result: 2

The record that follows has no Ki shown yet.
input: Which Ki is listed for `C1=C(c2c[nH]c3ncccc23)CCN(CCCc2ccccc2)C1` ?
output: 29

---

- Test Target: Sigma non-opioid intracellular receptor 1 (Cavia porcellus, UniProt Q60492)
- Sequence (Q60492 whole entry): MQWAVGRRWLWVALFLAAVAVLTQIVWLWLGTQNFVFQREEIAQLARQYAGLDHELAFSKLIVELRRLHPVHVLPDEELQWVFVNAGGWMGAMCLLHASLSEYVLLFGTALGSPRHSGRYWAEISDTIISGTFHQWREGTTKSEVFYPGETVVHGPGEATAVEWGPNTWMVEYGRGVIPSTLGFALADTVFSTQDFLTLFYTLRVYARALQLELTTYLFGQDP
- Measurement Notes: Displacement of [3H]pentazocine from sigma 1 receptor expressed in guinea pig brain membranes assessed as inhibition constant by radioligand binding assay
- Assay type: cell membranes, Membrane
Measurement Type: log10 of Ki (log10 of the value in nM)
// units: nM (pre-log); metric: Ki; scale: log10

See these solved cases before continuing.
- Molecule: "CCCCCCCNCCC1CCN(C)C(c2ccccc2)C1 (stereo not given)"
  log10 of Ki: 1.20
- Molecule: "CCCCCCNCC[C@@H]1CCC[C@H](c2ccccc2)O1"
  log10 of Ki: -0.02
- Molecule: "CCCCCCNCC[C@H]1CCC[C@@H](c2ccccc2)O1"
  log10 of Ki: 0.38
- Molecule: "COc1cccc(OC)c1[C@H]1CC[C@@H](N2CCN(C3CCCCC3)CC2)CC1"
  log10 of Ki: -0.59

input: Which log10 of Ki value is on record for `Fc1cccc(F)c1[C@H]1CC[C@@H](N2CCN(C3CCCCC3)CC2)CC1` ?
output: -0.20

---

For each record, write down the corresponding pKi.
- Test Target: Sigma intracellular receptor 2 (Homo sapiens, UniProt Q5BJF2)
- Sequence (Q5BJF2 whole entry): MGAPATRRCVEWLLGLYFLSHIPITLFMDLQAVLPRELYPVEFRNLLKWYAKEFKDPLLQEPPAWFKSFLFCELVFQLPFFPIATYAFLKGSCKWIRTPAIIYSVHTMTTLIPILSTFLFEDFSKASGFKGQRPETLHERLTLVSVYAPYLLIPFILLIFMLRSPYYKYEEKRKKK
- Measurement Notes: Binding affinity to sigma 2 receptor (unknown origin) expressed in human RT-4 cells
- Format: cell-based
Answers are plain numbers, as −log10 of the molar value.

Worked set:
- Smiles Text: "CCN1CCN(Cc2cccc3ccccc23)[C@@H](CCO)C1"
  pKi: 7.80
- Smiles Text: "CCN1CCN(Cc2cccc3ccccc23)[C@H](CCO)C1"
  pKi: 7.43
- Smiles Text: "OCC[C@@H]1CN(CC2CCCCC2)CCN1Cc1ccc(-c2ccccc2)cc1"
  pKi: 7.41

Now take the following compound into account.
input: Report pKi for `OCC[C@H]1CN(CC2CCCCC2)CCN1Cc1ccc(-c2ccccc2)cc1` tested on Sigma intracellular receptor 2 (Homo sapiens, UniProt Q5BJF2).
output: 7.37

---

For each of the compounds below, state its pKi.
- Test Target: Sigma intracellular receptor 2 (Homo sapiens)
- Measurement Notes: Binding affinity to human sigma 2 receptor
Answers are plain numbers, as −log10 of the molar value.

Examples with answers:
- Smiles Text: "CCCN(CCC)CCc1ccc(OC)c(OCCc2ccccc2)c1"
  pKi: 6.77
- Smiles Text: "O=C(NC1CCN(Cc2ccccc2)CC1)c1ccc(I)cc1"
  pKi: 7.60
- Smiles Text: "O=C(OCCN1CCOCC1)C1(c2ccccc2)CCCCC1"
  pKi: 4.49

Now, please, on to the next compound.
input: Quick check: pKi on Sigma intracellular receptor 2 (Homo sapiens), item `CCCN1CCC=C(c2cc(-c3ccc(C)cc3)no2)C1` ?
output: 5.86

---

- Test Target: Sigma intracellular receptor 2 (Rattus norvegicus)
- Sequence (Q5U3Y7 whole entry): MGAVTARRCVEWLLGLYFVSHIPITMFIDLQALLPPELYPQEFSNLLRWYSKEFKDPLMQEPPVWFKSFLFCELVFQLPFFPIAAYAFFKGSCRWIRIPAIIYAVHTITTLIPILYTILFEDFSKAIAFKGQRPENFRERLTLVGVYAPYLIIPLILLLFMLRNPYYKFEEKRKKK
- Measurement Notes: Binding affinity to sigma 2 receptor expressed in rat liver
- Assay type: tissue-based
Give measured pKi for each item. Keep answers brief.
One number for each entry, as −log10 of the molar value.

// worked examples, pKi included
- Smiles Text: "OCC[C@@H]1CN(CC2CCCCC2)CCN1Cc1ccc(-c2ccccc2)cc1"
  Test Target: "Sigma intracellular receptor 2 (Rattus norvegicus)"
  pKi: 7.42
- Smiles Text: "CCN1CCN(Cc2cccc3ccccc23)[C@@H](CCO)C1"
  Test Target: "Sigma intracellular receptor 2 (Rattus norvegicus)"
  pKi: 7.59
- Smiles Text: "CCN1CCN(Cc2cccc3ccccc23)[C@H](CCO)C1"
  Test Target: "Sigma intracellular receptor 2 (Rattus norvegicus)"
  pKi: 7.85

Shift focus to the following entry.
input: Give pKi (Sigma intracellular receptor 2 (Rattus norvegicus)) of the following compound: `OCC[C@H]1CN(CC2CCCCC2)CCN1Cc1ccc(-c2ccccc2)cc1`
output: 7.14
